- protocol.summary: Particle size distribution by laser diffraction (Malvern apparatus)
- Type: physicochemical
- conditions: volume diameter of 10% of the particles
Where a name gives a salt, the structure may show the parent alone.
result.type: Particle size d (v, 0.1) (μm)
Respond with the bare value in μm.

Would you please look over these solved cases?
compound	Particle size d (v, 0.1) [μm]
COc1ccc(C[C@@H](C)NC[C@H](O)c2ccc(O)c3[nH]c(=O)ccc23)cc1 [carmoterol hydrochloride batch 6]	0.73
COc1ccc(C[C@@H](C)NC[C@H](O)c2ccc(O)c3[nH]c(=O)ccc23)cc1 [carmoterol hydrochloride batch 5]	0.70
COc1ccc(C[C@@H](C)NC[C@H](O)c2ccc(O)c3[nH]c(=O)ccc23)cc1 [carmoterol hydrochloride batch 4]	0.68
COc1ccc(C[C@@H](C)NC[C@H](O)c2ccc(O)c3[nH]c(=O)ccc23)cc1 [carmoterol hydrochloride batch 2]	0.85
COc1ccc(C[C@@H](C)NC[C@H](O)c2ccc(O)c3[nH]c(=O)ccc23)cc1 [carmoterol hydrochloride batch 3]	0.59

// next entry
Find the recorded Particle size d (v, 0.1) belonging to COc1ccc(C[C@@H](C)NC[C@H](O)c2ccc(O)c3[nH]c(=O)ccc23)cc1 [carmoterol hydrochloride batch 1] and report it.
0.94
